B1: KRT71 (parent)
chain: FGSRSLYSLGGVRSLNVASGSGKS

Variants of: B1
Assay: protein stability index of a GFP-peptide fusion (GPS, HEK-293T) (PSI 1-6); higher = more stable;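 further: lentivirally expressed fusions sorted by FACS into six bins by GFP to DsRed ratio, PSI derived from sequencing read proportions per bin multiplied by bin number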
Settings: c terminus: a fixed tail appended
Provide the reported protein stability index of each item.
Write the value as a bare number.

protein stability index in this record for FGSRSLYSLGGVRSLNVASGSPKS [G22P] : 1.89

protein stability index in this record for HGSRSLYSLGGVRSLNVASGSGKS [F1H] : 3.98

protein stability index in this record for FGSRSVYSLGGVRSLNVASGSGKS [L6V] : 1.62

protein stability index in this record for FGSRSLYSLGGVRSLNAASGSGKS [V17A] : 1.91

protein stability index in this record for FGSRSLYSEGGVRSLNVASGSGKS [L9E] : 2.59

protein stability index in this record for FGSRSLYSLGGVRRLNVASGSGKS [S14R] : 1.5

protein stability index in this record for FGSRSLYSLGGVRSLNVASGSGCS [K23C] : 1.97

protein stability index in this record for FGSRSLYSLGGVRSLNVASGSGQS [K23Q] : 1.77

protein stability index in this record for FGSRSLYSLGGVRSLNVASGSRKS [G22R] : 2.48

protein stability index in this record for FGSRSLYSLGGVSSLNVASGSGKS [R13S] : 2.48

protein stability index in this record for FGSRWLYSLGGVRSLNVASGSGKS [S5W] : 2.33

protein stability index in this record for FGSRSLYSLGGVRSLIVASGSGKS [N16I] : 1.29

protein stability index in this record for FGSRSLYSLGGVRCLNVASGSGKS [S14C] : 1.58

protein stability index in this record for FGSRSSYSLGGVRSLNVASGSGKS [L6S] : 2.13

protein stability index in this record for FGSRSLYSLGGVTSLNVASGSGKS [R13T] : 1.28

protein stability index in this record for FGSRSLYSLGGSRSLNVASGSGKS [V12S] : 2.45

protein stability index in this record for FGSQSLYSLGGVRSLNVASGSGKS [R4Q] : 2.5

protein stability index in this record for FGSRSLYSLKGVRSLNVASGSGKS [G10K] : 1.9

protein stability index in this record for FGSRSHYSLGGVRSLNVASGSGKS [L6H] : 2.33

protein stability index in this record for FGTRSLYSLGGVRSLNVASGSGKS [S3T] : 1.95

protein stability index in this record for FGSRSLYSLGGVRSWNVASGSGKS [L15W] : 1.34

protein stability index in this record for FGSRSLYSLGGVRSLNVASGSGIS [K23I] : 2.12

protein stability index in this record for FGSRSLYSLGGVRSLNVASGSHKS [G22H] : 2.75

protein stability index in this record for FGSRSLYSLGGVRSLNVASGSDKS [G22D] : 2.15

protein stability index in this record for FGSRSLYSLGGVRSLNVASGSGKM [S24M] : 1.62

protein stability index in this record for FGSRSLWSLGGVRSLNVASGSGKS [Y7W] : 2.05

protein stability index in this record for FGSRSLYSLGGVRSLNVYSGSGKS [A18Y] : 2.94

protein stability index in this record for FGSRSLYSLGGVMSLNVASGSGKS [R13M] : 1.26

protein stability index in this record for FGSRSLYSLGGVRSLNVASGSSKS [G22S] : 1.93

protein stability index in this record for FGSRSLYSLGGVRSLNVAGGSGKS [S19G] : 1.67

protein stability index in this record for FGSRSLYSLYGVRSLNVASGSGKS [G10Y] : 1.94

protein stability index in this record for FGSRSLYSLGGVRSLNVASRSGKS [G20R] : 1.97

protein stability index in this record for FGSRSLMSLGGVRSLNVASGSGKS [Y7M] : 2.54

protein stability index in this record for FGSRSLYSLDGVRSLNVASGSGKS [G10D] : 2.51

protein stability index in this record for FGSRSLYSLGGVRSGNVASGSGKS [L15G] : 1.88

protein stability index in this record for FGSRSLYSLGGVRSLNVASGSGPS [K23P] : 2.15

protein stability index in this record for FRSRSLYSLGGVRSLNVASGSGKS [G2R] : 3.5

protein stability index in this record for FGSRSLYSLGGVRSLNVASGSGYS [K23Y] : 1.69

protein stability index in this record for FGSRSLYSLGGVRSLNVSSGSGKS [A18S] : 2.65

protein stability index in this record for FGSRSLESLGGVRSLNVASGSGKS [Y7E] : 4.17

protein stability index in this record for FGSASLYSLGGVRSLNVASGSGKS [R4A] : 2.71

protein stability index in this record for FGSRSLYSLGGVRSLNVAAGSGKS [S19A] : 1.8

protein stability index in this record for FGRRSLYSLGGVRSLNVASGSGKS [S3R] : 1.97

protein stability index in this record for FGSRSLYSLGGVRSLNYASGSGKS [V17Y] : 2.07

protein stability index in this record for FGSRSLYSLGGVRSLNVASHSGKS [G20H] : 1.67

protein stability index in this record for FGSRSLYSLGGDRSLNVASGSGKS [V12D] : 2.05

protein stability index in this record for FGSRSLYTLGGVRSLNVASGSGKS [S8T] : 1.89

protein stability index in this record for FGSRPLYSLGGVRSLNVASGSGKS [S5P] : 2.91

protein stability index in this record for FGSRSLYSLGGVRSANVASGSGKS [L15A] : 2.35

protein stability index in this record for FGSRSLYSLGGVRSLNVASGSYKS [G22Y] : 2.44

protein stability index in this record for FGSRSLYSLGGVRSLSVASGSGKS [N16S] : 2.15

protein stability index in this record for CGSRSLYSLGGVRSLNVASGSGKS [F1C] : 2.87

protein stability index in this record for FGGRSLYSLGGVRSLNVASGSGKS [S3G] : 1.84

protein stability index in this record for FGSRSLYSLGGVRSLNVASGSQKS [G22Q] : 2.09

protein stability index in this record for FGSRSLYELGGVRSLNVASGSGKS [S8E] : 2.75

protein stability index in this record for FGSRSLYSLGQVRSLNVASGSGKS [G11Q] : 3.2

protein stability index in this record for FGSRSLYSLGGVRSLNGASGSGKS [V17G] : 1.91

protein stability index in this record for FGSRSLYSLGIVRSLNVASGSGKS [G11I] : 5.35

protein stability index in this record for FGSRRLYSLGGVRSLNVASGSGKS [S5R] : 2.77

protein stability index in this record for FGSRSLYSLGGVRSLNDASGSGKS [V17D] : 2.13

protein stability index in this record for FGSRSLYSLGEVRSLNVASGSGKS [G11E] : 2.92

protein stability index in this record for FGSGSLYSLGGVRSLNVASGSGKS [R4G] : 2.56

protein stability index in this record for FGSRSLYSLGGVRSLNVASGHGKS [S21H] : 2.11

protein stability index in this record for VGSRSLYSLGGVRSLNVASGSGKS [F1V] : 3.81

protein stability index in this record for FGSRSLCSLGGVRSLNVASGSGKS [Y7C] : 2.48

protein stability index in this record for FGSRSLYSCGGVRSLNVASGSGKS [L9C] : 2.12

protein stability index in this record for FGSRSLYSLGGVRSLNVASPSGKS [G20P] : 2

protein stability index in this record for FGSRSLYSLGGRRSLNVASGSGKS [V12R] : 2.37

protein stability index in this record for FGSRSLYSLGGVRSLNVAEGSGKS [S19E] : 1.98

protein stability index in this record for FGSRSLYSMGGVRSLNVASGSGKS [L9M] : 1.83

protein stability index in this record for FGSRSLYSLGGVRSLNVASMSGKS [G20M] : 1.49

protein stability index in this record for FGSRSLYSLGGVRYLNVASGSGKS [S14Y] : 2.36

protein stability index in this record for FGSRSLYSLGGVRSLNVASDSGKS [G20D] : 2.18

protein stability index in this record for FGSRSLYSLGGVRSLNVASYSGKS [G20Y] : 1.87

protein stability index in this record for FGSRSLYSLGGVRSKNVASGSGKS [L15K] : 1.99

protein stability index in this record for FGSRSLHSLGGVRSLNVASGSGKS [Y7H] : 2.98

protein stability index in this record for FGSRSLYSLGGVRSLNVVSGSGKS [A18V] : 1.88

protein stability index in this record for FGSRSLYHLGGVRSLNVASGSGKS [S8H] : 2.89

protein stability index in this record for FGSWSLYSLGGVRSLNVASGSGKS [R4W] : 1.62

protein stability index in this record for FGSRSLYSLGGVRSLNVASGSTKS [G22T] : 1.45

protein stability index in this record for FGLRSLYSLGGVRSLNVASGSGKS [S3L] : 2.47

protein stability index in this record for FGSRSLYSLGGVRSLNVASGSGTS [K23T] : 1.56

protein stability index in this record for FGSRSLYSLGGVYSLNVASGSGKS [R13Y] : 1.7

protein stability index in this record for FGQRSLYSLGGVRSLNVASGSGKS [S3Q] : 2.09
